Target Of Assay: Voltage-gated inwardly rectifying potassium channel KCNH2 (Homo sapiens, UniProt Q12809)
Sequence (Q12809 whole entry): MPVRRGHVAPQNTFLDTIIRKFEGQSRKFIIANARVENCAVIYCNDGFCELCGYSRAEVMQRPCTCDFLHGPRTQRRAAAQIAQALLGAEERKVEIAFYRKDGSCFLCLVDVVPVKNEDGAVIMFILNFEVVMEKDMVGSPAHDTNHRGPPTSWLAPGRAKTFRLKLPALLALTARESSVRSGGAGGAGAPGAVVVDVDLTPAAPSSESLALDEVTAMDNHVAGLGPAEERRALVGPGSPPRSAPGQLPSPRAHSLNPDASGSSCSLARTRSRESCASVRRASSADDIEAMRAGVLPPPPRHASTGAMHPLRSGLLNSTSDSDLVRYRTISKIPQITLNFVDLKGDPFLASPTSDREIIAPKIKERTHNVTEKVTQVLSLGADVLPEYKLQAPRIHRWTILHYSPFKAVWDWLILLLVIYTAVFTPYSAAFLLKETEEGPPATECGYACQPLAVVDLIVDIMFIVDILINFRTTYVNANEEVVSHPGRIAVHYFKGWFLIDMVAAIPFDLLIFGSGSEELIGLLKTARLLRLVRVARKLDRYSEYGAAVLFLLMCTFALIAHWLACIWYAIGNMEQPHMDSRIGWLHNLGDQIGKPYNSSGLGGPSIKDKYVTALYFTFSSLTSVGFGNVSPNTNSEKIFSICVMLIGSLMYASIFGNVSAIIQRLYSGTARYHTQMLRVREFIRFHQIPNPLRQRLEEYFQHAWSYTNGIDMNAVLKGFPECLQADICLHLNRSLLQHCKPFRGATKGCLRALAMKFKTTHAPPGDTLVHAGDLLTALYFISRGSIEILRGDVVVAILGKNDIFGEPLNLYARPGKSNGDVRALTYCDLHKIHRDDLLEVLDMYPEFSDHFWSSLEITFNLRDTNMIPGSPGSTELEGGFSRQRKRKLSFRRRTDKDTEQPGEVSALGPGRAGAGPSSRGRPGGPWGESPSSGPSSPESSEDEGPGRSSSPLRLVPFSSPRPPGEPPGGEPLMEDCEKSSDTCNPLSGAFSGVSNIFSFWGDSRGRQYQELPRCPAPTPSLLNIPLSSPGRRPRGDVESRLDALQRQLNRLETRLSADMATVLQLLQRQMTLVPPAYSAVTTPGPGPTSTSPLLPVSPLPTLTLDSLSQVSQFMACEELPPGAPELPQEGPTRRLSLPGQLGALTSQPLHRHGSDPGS
Experimental Protocol: Inhibition of human ERG assessed as inhibition constant by patch-clamp assay
pKi: −log10 of the molar value.
Property Measured: pKi

In: Specify measured pKi for CN(C)C(=O)c1ccc(-c2cc(C(=O)N[C@@H]3CCc4ccccc43)no2)cc1O .
Out: < 4.00

* * *

Reported IC50 values for a set of compounds
Target Of Assay: Protein AF-9 (Homo sapiens, UniProt P42568)
Sequence (P42568 whole entry, the tested form may be a part): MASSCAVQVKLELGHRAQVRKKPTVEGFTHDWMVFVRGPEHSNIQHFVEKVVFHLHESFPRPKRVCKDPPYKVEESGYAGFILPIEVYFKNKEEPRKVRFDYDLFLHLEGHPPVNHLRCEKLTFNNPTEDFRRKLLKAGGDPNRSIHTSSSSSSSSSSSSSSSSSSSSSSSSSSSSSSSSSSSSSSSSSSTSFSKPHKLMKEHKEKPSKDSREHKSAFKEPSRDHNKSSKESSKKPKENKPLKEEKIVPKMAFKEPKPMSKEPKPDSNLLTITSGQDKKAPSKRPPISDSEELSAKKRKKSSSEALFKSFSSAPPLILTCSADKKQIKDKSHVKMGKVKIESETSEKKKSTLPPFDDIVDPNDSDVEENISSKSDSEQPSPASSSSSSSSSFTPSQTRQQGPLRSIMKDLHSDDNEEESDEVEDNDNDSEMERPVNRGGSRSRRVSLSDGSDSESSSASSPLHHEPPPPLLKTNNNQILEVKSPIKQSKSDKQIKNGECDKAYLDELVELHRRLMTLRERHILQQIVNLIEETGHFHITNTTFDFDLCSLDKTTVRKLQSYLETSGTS
Experimental Protocol: Inhibition of MLLT3 YD domain (unknown origin) assessed as disruption of histone peptide binding using histone peptide as substrate by HTRF assay
Give just the numeric value; µM need not be written.

| Record Smiles | Target Of Assay | IC50 [µM] |
| --- | --- | --- |
| O=C(NC1CCCC1)c1cc(-c2cccc(O)c2)on1 | Protein AF-9 (Homo sapiens, UniProt P42568) | 0.63 |
| O=C(NC1CCCC1)c1cnn(-c2cccc(O)c2)c1 | Protein AF-9 (Homo sapiens, UniProt P42568) | 2.4 |
| O=C(NC1CCCC1)c1cc(-c2cccc(O)c2)n[nH]1 | Protein AF-9 (Homo sapiens, UniProt P42568) | 3.4 |

API: the following record is the query input.
In: Specify measured IC50 for CN(C)C(=O)c1ccc(-c2cc(C(=O)NC3CCCC3)no2)cc1O .
Out: 0.12

* * *

Reported IC50 values for a set of molecules
Target Of Assay: YEATS domain-containing protein 2 (Homo sapiens, UniProt Q9ULM3)
Sequence (Q9ULM3 whole entry, the tested form may be a part): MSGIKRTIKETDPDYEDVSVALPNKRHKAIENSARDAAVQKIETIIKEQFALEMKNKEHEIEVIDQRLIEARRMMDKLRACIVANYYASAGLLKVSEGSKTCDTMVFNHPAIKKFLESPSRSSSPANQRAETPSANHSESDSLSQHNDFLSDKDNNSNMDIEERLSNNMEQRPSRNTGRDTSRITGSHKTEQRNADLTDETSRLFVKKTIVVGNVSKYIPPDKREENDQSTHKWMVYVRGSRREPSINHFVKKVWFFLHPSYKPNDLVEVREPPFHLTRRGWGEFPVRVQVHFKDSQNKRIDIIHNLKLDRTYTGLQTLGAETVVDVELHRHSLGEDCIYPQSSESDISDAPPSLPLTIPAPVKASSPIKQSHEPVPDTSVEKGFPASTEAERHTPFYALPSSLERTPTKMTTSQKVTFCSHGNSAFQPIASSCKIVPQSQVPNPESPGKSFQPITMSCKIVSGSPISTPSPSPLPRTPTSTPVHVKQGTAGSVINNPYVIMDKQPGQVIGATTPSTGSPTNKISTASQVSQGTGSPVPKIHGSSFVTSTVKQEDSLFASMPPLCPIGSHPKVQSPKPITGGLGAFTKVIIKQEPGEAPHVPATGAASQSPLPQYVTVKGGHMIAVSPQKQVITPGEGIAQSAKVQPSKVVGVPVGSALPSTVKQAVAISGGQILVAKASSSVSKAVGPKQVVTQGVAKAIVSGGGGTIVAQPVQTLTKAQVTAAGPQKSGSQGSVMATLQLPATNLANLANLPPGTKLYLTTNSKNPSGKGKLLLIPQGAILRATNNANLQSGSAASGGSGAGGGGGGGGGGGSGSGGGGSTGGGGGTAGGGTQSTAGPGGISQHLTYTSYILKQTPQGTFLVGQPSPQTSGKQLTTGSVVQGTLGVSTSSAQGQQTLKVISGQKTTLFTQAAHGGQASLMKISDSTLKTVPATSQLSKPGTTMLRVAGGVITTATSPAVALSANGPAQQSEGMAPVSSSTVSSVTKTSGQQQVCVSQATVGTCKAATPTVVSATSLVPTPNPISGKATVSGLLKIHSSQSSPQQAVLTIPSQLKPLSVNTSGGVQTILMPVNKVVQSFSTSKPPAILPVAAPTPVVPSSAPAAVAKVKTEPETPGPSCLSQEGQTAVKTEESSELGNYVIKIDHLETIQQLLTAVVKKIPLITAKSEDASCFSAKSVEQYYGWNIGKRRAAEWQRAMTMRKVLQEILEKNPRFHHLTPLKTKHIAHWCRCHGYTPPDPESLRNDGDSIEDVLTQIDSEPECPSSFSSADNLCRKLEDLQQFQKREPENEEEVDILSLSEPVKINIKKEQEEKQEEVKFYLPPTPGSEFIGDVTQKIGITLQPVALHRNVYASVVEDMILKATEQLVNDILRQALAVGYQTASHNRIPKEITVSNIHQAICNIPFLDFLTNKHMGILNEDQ

In: Specify measured IC50 for CN(C)C(=O)c1ccc(-c2cc(C(=O)NC3CCCC3)no2)cc1O .
Out: > 30 µM

In: Specify measured IC50 for O=C(NC1CCCC1)c1cc(-c2cccc(O)c2)n[nH]1 .
Out: > 30 µM
